Source: the supplement of paper PMC3334620

Target: Gcr1 (UniProt P07261)
Sequence: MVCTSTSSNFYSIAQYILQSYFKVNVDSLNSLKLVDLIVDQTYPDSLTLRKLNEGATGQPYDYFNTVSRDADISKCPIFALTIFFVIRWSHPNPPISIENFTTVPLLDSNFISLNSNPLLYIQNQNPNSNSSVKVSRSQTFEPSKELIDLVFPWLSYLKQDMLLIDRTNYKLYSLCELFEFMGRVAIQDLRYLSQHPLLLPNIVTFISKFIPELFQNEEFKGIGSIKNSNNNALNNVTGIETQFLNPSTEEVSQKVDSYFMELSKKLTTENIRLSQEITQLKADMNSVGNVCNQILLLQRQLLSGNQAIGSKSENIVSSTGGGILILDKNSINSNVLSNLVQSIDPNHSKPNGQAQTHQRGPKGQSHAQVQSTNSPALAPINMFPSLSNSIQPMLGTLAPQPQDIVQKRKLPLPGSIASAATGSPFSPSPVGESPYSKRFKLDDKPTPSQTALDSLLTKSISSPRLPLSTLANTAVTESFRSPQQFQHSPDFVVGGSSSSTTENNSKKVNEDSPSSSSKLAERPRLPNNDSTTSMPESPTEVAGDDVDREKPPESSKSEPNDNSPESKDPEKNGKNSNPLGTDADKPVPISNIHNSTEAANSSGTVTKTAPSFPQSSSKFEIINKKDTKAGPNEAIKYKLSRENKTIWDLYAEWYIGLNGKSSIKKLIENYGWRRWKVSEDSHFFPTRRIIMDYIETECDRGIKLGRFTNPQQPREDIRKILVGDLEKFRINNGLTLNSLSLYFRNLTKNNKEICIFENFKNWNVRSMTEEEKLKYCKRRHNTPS
Test: PBM E-score (8-mer binding enrichment) (E-score (-0.5 to 0.5)); higher = stronger / more preferred TF binding
Details: protein concentration: 100 nM; construct: GST-full length
In all, about 33,000 sequences were measured (“E-score (-0.5 to 0.5)”: median about -0.011, highest 2% from about 0.28 on). Only a selection was taken, and the highest values are over-represented in it overall.
Outcome label depends on PBM E-score relative to 0.02: at/above gives yes, below gives no.

Confirm if PBM E-score reported for the sequence AAAGCCAA is 0.02 or above.
no

Confirm if PBM E-score reported for the sequence AAAGCGCG is 0.02 or above.
no

Confirm if PBM E-score reported for the sequence GTAGTGTA is 0.02 or above.
no

Confirm if PBM E-score reported for the sequence AGCACTAA is 0.02 or above.
no

Confirm if PBM E-score reported for the sequence AGCTAATA is 0.02 or above.
no

Confirm if PBM E-score reported for the sequence CAGCCCTC is 0.02 or above.
no

Confirm if PBM E-score reported for the sequence TCCGGAAA is 0.02 or above.
yes

Confirm if PBM E-score reported for the sequence TCCACTCA is 0.02 or above.
yes

Confirm if PBM E-score reported for the sequence AGCGTCTC is 0.02 or above.
yes

Confirm if PBM E-score reported for the sequence ACGGCACG is 0.02 or above.
no

Confirm if PBM E-score reported for the sequence CCCTGCCA is 0.02 or above.
yes

Confirm if PBM E-score reported for the sequence CGGAAGAA is 0.02 or above.
no

Confirm if PBM E-score reported for the sequence CTAGTGGA is 0.02 or above.
yes

Confirm if PBM E-score reported for the sequence GGGGTTTA is 0.02 or above.
no

Confirm if PBM E-score reported for the sequence ATCCGACA is 0.02 or above.
no

Confirm if PBM E-score reported for the sequence GGCGTCTA is 0.02 or above.
yes

Confirm if PBM E-score reported for the sequence CTAGTGTA is 0.02 or above.
yes

Confirm if PBM E-score reported for the sequence CAGTGATA is 0.02 or above.
yes

Confirm if PBM E-score reported for the sequence GAAGCCAC is 0.02 or above.
yes

Confirm if PBM E-score reported for the sequence CAGCAGCA is 0.02 or above.
no

Confirm if PBM E-score reported for the sequence CTCCCCGC is 0.02 or above.
yes

Confirm if PBM E-score reported for the sequence CCCACTAC is 0.02 or above.
yes

Confirm if PBM E-score reported for the sequence AACGGAGG is 0.02 or above.
no

Confirm if PBM E-score reported for the sequence ACAAAGAG is 0.02 or above.
no

Confirm if PBM E-score reported for the sequence CAAGCCAC is 0.02 or above.
no

Confirm if PBM E-score reported for the sequence GCCTTCAC is 0.02 or above.
no

Confirm if PBM E-score reported for the sequence TAAGCCAA is 0.02 or above.
yes

Confirm if PBM E-score reported for the sequence AAGGAGGT is 0.02 or above.
no

Confirm if PBM E-score reported for the sequence GCCACTAC is 0.02 or above.
yes

Confirm if PBM E-score reported for the sequence CCCACTAA is 0.02 or above.
yes
